Target: TPMTwt (Homo sapiens)
Construct: recombinant, pET-28a, E. coli BL21(DE3) CodonPlus, His-tag cleaved off with thrombin, Ni-NTA and gel filtration
Sequence (P51580 1-245): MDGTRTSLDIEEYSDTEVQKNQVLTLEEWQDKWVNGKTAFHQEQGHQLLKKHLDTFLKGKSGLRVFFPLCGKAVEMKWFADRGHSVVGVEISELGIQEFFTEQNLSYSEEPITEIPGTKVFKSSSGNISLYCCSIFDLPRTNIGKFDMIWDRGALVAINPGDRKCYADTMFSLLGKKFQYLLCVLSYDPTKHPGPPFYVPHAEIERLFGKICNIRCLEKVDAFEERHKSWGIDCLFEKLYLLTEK
Assay: isothermal titration calorimetry
MEASURED_ENDPOINT: Kd (µM)
# unit: µM | format: bare number

Form field Kd for item C[S+](CC[C@H](N)C(=O)O)C[C@H]1O[C@@H](n2cnc3c(N)ncnc32)[C@H](O)[C@@H]1O (stereo partly shown) [SAM] on TPMTwt (Homo sapiens): 2.7
